- System: P. falciparum stage V gametocytes
- Set-up: BacTiter-Glo ATP luminescence viability of purified stage V gametocytes in 384-well plates, per cent inhibition versus DMSO
- Settings: 48 h, 5 µM; inhibitor
About 3,200 (25%) of roughly 13,000 compounds showed an effect of 50% or more. The list shows a part of the results.
Classify as follows. Reported % Inhibition greater than or equal to 30%: Yes. Reported % Inhibition below: No.

Query: Check this molecule for % Inhibition at or above 30%: CN1CCN(c2ncnc3ccc(NC(=O)Nc4ccc(Cl)c(Cl)c4)cc23)CC1
Response: No

Query: Evaluate CN1CCN(CCCNCc2cccc(-c3ccc(CNCCc4ccccc4)cc3)c2)CC1 : % Inhibition at minimum 30%?
Response: Yes

Query: Is % Inhibition at least 30%? Consider Cc1cc(N2CCNCC2)c2cc(NC(=O)Nc3ccc(Cl)c(Cl)c3)ccc2n1
Response: Yes

Query: Record CCNc1cc(C(=O)N[C@@H](Cc2ccccc2)[C@H](O)CNC2CCCCC2)cc(N2CCCCS2(=O)=O)c1 ; criterion: % Inhibition no lower than 30%. Met?
Response: No

Query: Is it the case that CCCC1(NC[C@@H](O)[C@H](Cc2ccccc2)NC(=O)c2cc(NCC)cc(N3CCCCS3(=O)=O)c2)CCCCC1 has % Inhibition reaching or exceeding 30%?
Response: No

Query: For this molecule, is measured % Inhibition 30% or higher? CCNc1cc(C(=O)N[C@@H](Cc2ccccc2)[C@H](O)CNC23CCC(CC2)CC3)cc(N2CCCCS2(=O)=O)c1
Response: Yes

Query: Tell me whether % Inhibition is at least 30% here: CC(C)CNCc1cccc(-c2cccc(CNCCCN3CCN(C)CC3)c2)c1
Response: Yes

Query: Hi team, for Cc1ccc(C(C(=O)Nc2ccc(N3CCNCC3)c(Cl)c2)c2ccccc2)cc1 (stereo not drawn) , is the recorded % Inhibition at or above 30%?
Response: Yes

Query: API: above_or_equal(metric=% Inhibition, cutoff=30%) for item CCNc1cc(C(=O)N[C@@H](Cc2ccccc2)[C@H](O)CNC2(C)CCCCC2)cc(N2CCCCS2(=O)=O)c1
Response: Yes

Query: Can Cc1cccc2[nH]c(-c3ccc(-c4cccc(CNCCCN5CCCC5=O)c4)cc3)nc12 be said to have % Inhibition at or above 30%?
Response: No

Query: Is the recorded value of % Inhibition equal to or greater than 30% for this molecule? CCNc1cc(C(=O)N[C@@H](Cc2ccccc2)[C@H](O)CNC2CC3CCC2C3)cc(N2CCCCS2(=O)=O)c1 (stereo partly drawn)
Response: Yes

Query: Does the reported % Inhibition for CCNc1cc(C(=O)N[C@@H](Cc2ccccc2)[C@H](O)CNC23CCC(CC2)C3)cc(N2CCCCS2(=O)=O)c1 fall at or above the 30% mark?
Response: Yes

Query: Exam item: decide whether the reported % Inhibition for CCNc1cc(C(=O)N[C@@H](Cc2ccccc2)[C@H](O)CNC23CC4CC(CC(C4)C2)C3)cc(N2CCCCS2(=O)=O)c1 is at least 30%.
Response: Yes

Query: Check if % Inhibition >= 30% (inclusive). Item: CCCC1(NC[C@@H](O)[C@H](Cc2ccccc2)NC(=O)c2cc(NCC)cc(N3CCCCS3(=O)=O)c2)CCCC1
Response: Yes

Query: Confirm if % Inhibition reported for the molecule CCNc1cc(C(=O)N[C@@H](Cc2ccccc2)[C@H](O)CNC2C3CC4CC(C3)CC2C4)cc(N2CCCCS2(=O)=O)c1 (stereo partly drawn) is 30% or above.
Response: Yes
